Cited source: ChEMBL document CHEMBL5120880

# EXPERIMENT: Binding affinity to beta-catenin/APC (unknown origin) assessed as inhibition constant
# Parameters: species or system Homo sapiens
MEASURED ENDPOINT: pKi
Numbers only, as −log10 of the molar value.

Query: May I ask what pKi has been recorded for `O=C(O)CC[C@H](NC(=O)[C@H](Cc1nnn[nH]1)NC(=O)[C@H](Cc1ccc2ccccc2c1)NC(=O)c1cc2c(Cl)cccc2[nH]1)C(=O)Nc1ccc(OC(F)(F)F)cc1` ?
Reply: 3.76

----------
Record form. Attribute: MIC. Fill in for each entry.
# Test system: Staphylococcus aureus
# EXPERIMENT: Antimicrobial activity against Staphylococcus aureus KCTC 1621 assessed as minimal inhibitory concentration incubated for 18 hrs
# Format: functional
One number for each entry, in µg/mL.

>  <SMILES STRUCTURE>
CC(=O)NCCNc1nc(NCC(=O)NCCNc2nc(NCC(=O)NCCNc3nc(NCC(=O)NCCNc4nc(NCC(N)=O)nc(N(Cc5ccccc5)Cc5ccccc5)n4)nc(N(CCCN)CCCN)n3)nc(N(Cc3ccccc3)Cc3ccccc3)n2)nc(N(CCCN)CCCN)n1

>  <UNIT SPEC>
µg/mL

>  <MIC>
16

$$$$

Each compound below has a recorded value; state its MIC.
1. CC(=O)NCCNc1nc(NCC(=O)NCCNc2nc(NCC(N)=O)nc(N(Cc3ccccc3)Cc3ccccc3)n2)nc(N(CCCN)CCCN)n1
2. CC(=O)NCCNc1nc(NCC(=O)NCCNc2nc(NCC(=O)NCCNc3nc(NCC(N)=O)nc(N(CCCN)CCCN)n3)nc(N(Cc3ccccc3)Cc3ccccc3)n2)nc(N(CCCN)CCCN)n1

Reply:
1. 32
2. 16

----------
# EXPERIMENT: Inhibition of FITC-labeled NS4A binding to HCV NS3 (4 to 182 residues) expressed in Escherichia coli […] (DE3) incubated for 60 mins by fluorescence anisotropy based competition assay
# Parameters: species or system Hepacivirus hominis
Record form. Attribute: IC50. Fill in for each entry.
Numbers only, in nM.

Some solved entries appear below for comparison.
>  <SMILES STRUCTURE>
CNC(=O)CNC(=O)c1ncc(C(=O)NCCCCNC(=N)N)[nH]1

>  <IC50 (nM)>
1910

$$$$
>  <SMILES STRUCTURE>
CCCCCNC(=O)c1ncc(C(=O)NCCCCNC(=N)N)[nH]1

>  <IC50 (nM)>
1910

$$$$

In the following, a different compound is considered.
Query: May I ask what IC50 has been recorded for `CCCCCCNC(=O)c1ncc(C(=O)NCCCCNC(=N)N)[nH]1` ?
Reply: 4700

----------
# Tested on: Pseudomonas aeruginosa
# EXPERIMENT: Antimicrobial activity against Pseudomonas aeruginosa KCTC 1637 assessed as minimal inhibitory concentration incubated for 18 hrs
# Format: functional
MEASURED ENDPOINT: MIC (µg/mL)
One number for each entry, in µg/mL.

>  <SMILES STRUCTURE>
CC(=O)NCCNc1nc(NCC(=O)NCCNc2nc(NCC(=O)NCCNc3nc(NCC(N)=O)nc(N(CCCN)CCCN)n3)nc(N(Cc3ccccc3)Cc3ccccc3)n2)nc(N(CCCN)CCCN)n1

>  <MEASURED ENDPOINT>
MIC

>  <UNIT SPEC>
µg/mL

>  <REPORTED MEASUREMENT>
16

$$$$
>  <SMILES STRUCTURE>
CC(=O)NCCNc1nc(NCC(=O)NCCNc2nc(NCC(=O)NCCNc3nc(NCC(N)=O)nc(N(Cc4ccccc4)Cc4ccccc4)n3)nc(N(CCCN)CCCN)n2)nc(N(Cc2ccccc2)Cc2ccccc2)n1

>  <MEASURED ENDPOINT>
MIC

>  <UNIT SPEC>
µg/mL

>  <REPORTED MEASUREMENT>
32

$$$$
>  <SMILES STRUCTURE>
CC(=O)NCCNc1nc(NCC(N)=O)nc(N(CCCN)CCCN)n1

>  <MEASURED ENDPOINT>
MIC

>  <UNIT SPEC>
µg/mL

>  <REPORTED MEASUREMENT>
128

$$$$

In the following, a different compound is considered.
Query: May I ask what MIC has been recorded for `CC(=O)NCCNc1nc(NCC(=O)NCCNc2nc(NCC(N)=O)nc(N(Cc3ccccc3)Cc3ccccc3)n2)nc(N(CCCN)CCCN)n1` ?
Reply: 32

----------
Record form. Attribute: MIC. Fill in for each entry.
# System: Staphylococcus aureus
# EXPERIMENT: Antibacterial activity against Staphylococcus aureus ATCC 29213 assessed as minimal inhibitory concentration
# Assay type: functional

Some solved entries appear below for comparison.
>  <SMILES STRUCTURE>
Cc1c(CN(C)C(=O)/C=C/c2cnc3c(c2)NC[C@@H](N)C(=O)N3)oc2ccccc12.Cl

>  <MIC>
< 4 µg/mL

$$$$
>  <SMILES STRUCTURE>
Cc1c(CN(C)C(=O)/C=C/c2cnc3c(c2)NC[C@@H](N2C[C@@H](C)O[C@@H](C)C2)C(=O)N3)oc2ccccc12

>  <MIC>
≤ 4 µg/mL

$$$$

In the following, a different molecule is considered.
Query: May I ask what MIC has been recorded for `Cc1c(CN(C)C(=O)/C=C/c2cnc3c(c2)CC[C@@H](N)C(=O)N3)oc2ccccc12.Cl` ?
Reply: ≤ 4 µg/mL

----------
Record form. Attribute: IC50. Fill in for each entry.
# System: BT-20
# EXPERIMENT: Cytotoxicity against human BT-20 cells assessed as cell growth inhibition
# Assay type: functional, cell-based

>  <SMILES STRUCTURE>
CCOC(=O)CC[C@H](NC(=O)[C@H](Cc1nn[nH]n1)NC(=O)[C@H](Cc1ccc2ccccc2c1)NC(=O)c1cc2cc(Cl)ccc2[nH]1)C(=O)Nc1ccc(OC(F)(F)F)cc1

>  <MEASURED ENDPOINT>
IC50

>  <REPORTED MEASUREMENT>
16.5 µM

$$$$

Query: May I ask what IC50 has been recorded for `NC(=O)CC[C@H](NC(=O)[C@H](Cc1nn[nH]n1)NC(=O)[C@H](Cc1ccc2ccccc2c1)NC(=O)c1cc2cc(Cl)ccc2[nH]1)C(=O)Nc1ccc(OC(F)(F)F)cc1` ?
Reply: 38.4 µM

----------
Record form. Attribute: EC50. Fill in for each entry.
# Test system: Feline infectious peritonitis virus
# EXPERIMENT: microbe, parasite or virus in culture
# TEST CONTEXT: Alphacoronavirus 1
One number for each entry, in nM.

>  <COMPOUND>
CC(C)C[C@H](NC(=O)OC1CCCCC1)C(=O)N[C@@H](C[C@H]1CCNC1=O)C(O)S(=O)(=O)O (some centres not stated)

>  <MEASURED ENDPOINT>
EC50

>  <UNIT SPEC>
nM

>  <REPORTED MEASUREMENT>
70

$$$$

Each compound below has a recorded value; state its EC50.
1. CC(C)C[C@H](NC(=O)OCC1CCC(F)(F)CC1)C(=O)N[C@@H](C[C@H]1CCNC1=O)C(O)S(=O)(=O)O (some centres not stated)
2. CCCCC1CCC(OC(=O)N[C@@H](CC(C)C)C(=O)N[C@H](C=O)C[C@H]2CCNC2=O)CC1 (some centres not stated)
3. CCCCC1CCC(OC(=O)N[C@@H](CC(C)C)C(=O)N[C@@H](C[C@H]2CCNC2=O)C(O)S(=O)(=O)O)CC1 (some centres not stated)

Reply:
70
220
170

Each compound below has a recorded value; state its EC50.
1. CCCC1CCC(OC(=O)N[C@@H](CC(C)C)C(=O)N[C@@H](C[C@H]2CCNC2=O)C(O)S(=O)(=O)O)CC1 (some centres not stated)
2. CC(C)C[C@H](NC(=O)OC1CCC(F)(F)CC1)C(=O)N[C@@H](C[C@H]1CCNC1=O)C(O)S(=O)(=O)O (some centres not stated)
3. CCCC1CCC(OC(=O)N[C@@H](CC(C)C)C(=O)N[C@H](C=O)C[C@H]2CCNC2=O)CC1 (some centres not stated)

Reply:
1: 170; 2: 120; 3: 120

----------
Record form. Attribute: EC50. Fill in for each entry.
# Test system: Feline infectious peritonitis virus
# EXPERIMENT: microbe, parasite or virus in culture
# TEST CONTEXT: Alphacoronavirus 1
Answers are plain numbers, in nM.

>  <SMILES STRUCTURE>
CC(C)C[C@H](NC(=O)OCC1CCC(F)(F)CC1)C(=O)N[C@H](C=O)C[C@H]1CCNC1=O

>  <TEST SYSTEM>
Feline infectious peritonitis virus

>  <EC50, nM>
80

$$$$
>  <SMILES STRUCTURE>
CC(C)C[C@H](NC(=O)OC1CCCCC1)C(=O)N[C@H](C=O)C[C@H]1CCNC1=O

>  <TEST SYSTEM>
Feline infectious peritonitis virus

>  <EC50, nM>
90

$$$$

In the following, a different molecule is considered.
Query: May I ask what EC50 has been recorded for `CC(C)C[C@H](NC(=O)OC1CCC(F)(F)CC1)C(=O)N[C@H](C=O)C[C@H]1CCNC1=O` ?
Reply: 120
